Values were extracted from patent US20190389957A1.

# target system: T1, IL-11Rα as used in the Biacore kinetics of Example 14 (UniProt Q14626 23-363, limits assumed)
# T1 sequence (looked up): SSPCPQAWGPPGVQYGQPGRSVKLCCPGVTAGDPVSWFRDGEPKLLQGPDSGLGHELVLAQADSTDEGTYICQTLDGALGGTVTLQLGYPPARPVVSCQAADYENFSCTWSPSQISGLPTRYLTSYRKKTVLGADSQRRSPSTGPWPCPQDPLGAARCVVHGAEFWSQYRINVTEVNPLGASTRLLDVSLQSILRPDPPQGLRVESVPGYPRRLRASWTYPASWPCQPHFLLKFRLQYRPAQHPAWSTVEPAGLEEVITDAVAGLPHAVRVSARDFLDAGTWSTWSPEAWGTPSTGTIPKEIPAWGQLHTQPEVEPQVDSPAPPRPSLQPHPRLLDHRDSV
# run description: SPR (Biacore T200), multi-cycle kinetics, 25 C, HBS-P+ pH 7.4 with 0.1% BSA
Consider the following binders; for each one, report its pKd.
// field semantics: pKd = negative decimal log of concentration (mol/L)

State the recorded pKd for this entry: Anti-IL-11Rα antibody clone BSO-9A7 (antibody, V domains shown, also called RA7; 9A7 VH/VL) VH: QVQLQQPGAELVRPGSSVKLSCKASGYTFTNYWMHWLKQRPVQGLEWIGNIGPSDSKTHYNQKFKDKATLTVDKSSSTAYMQLNSLTSEDSAVYYCARGDYVLFTYWGQGTLVTVSA VL: DIVLTQSPATLSMTPGDSVSLSCRASQSISNNLHWYQQKSHESPRLLIKYASQSISGIPSRFSGSGSGTDFTLSFNSVETEDFGVYFCQQSYSWPLTFGAGTKLELK
8.37

Would you mind telling me what pKd value was observed for Humanised BSO-9A7 variant VH4/VL2 (antibody, V domains shown, Variable domains only) VH: QVQLVQSGAEVKKPGASVKVSCKASGYTFTNYWMHWLRQRPGQGLEWIGNIGPSDSKTHYNQKFKDRVTMTVDKSTSTAYMELSSLRSEDTAVYYCARGDYVLFTYWGQGTLVTVSS VL: DIVLTQSPATLSLSPGERATLSCRASQSISNNLHWYQQKSGQAPRLLIKYASQSISGIPARFSGSGSGTDFTLTISSLETEDFAVYFCQQSYSWPLTFGQGTKLEIK ?
8.25

Param item = Humanised BSO-9A7 variant VH3/VL2 (antibody, V domains shown, T0003 heads the columns 'Heavy chain' and 'Light chain', but the entries are variable domains) VH: QVQLVQSGAEVKKPGASVKVSCKASGYTFTNYWMHWLRQRPGQGLEWIGNIGPSDSKTHYNQKFKDRATLTVDKSTSTAYMELSSLRSEDTAVYYCARGDYVLFTYWGQGTLVTVSS VL: DIVLTQSPATLSLSPGERATLSCRASQSISNNLHWYQQKSGQAPRLLIKYASQSISGIPARFSGSGSGTDFTLTISSLETEDFAVYFCQQSYSWPLTFGQGTKLEIK ; retrieve measured pKd.
8.44
